Test system: WPMY1-CANX-COX4
Experiment: phenotypically active (imaging signature differs from DMSO and reproducible) at any of 0.3-9 uM (binary (1 = active, 0 = inactive)); higher = active
Conditions: treatment time: 24 h
Where a name gives a salt, the structure may show the parent alone.
measured endpoint: phenotypically active
Note: the reply should be a number with no unit written.

| molecule | measured number |
| --- | --- |
| C[C@]12CC[C@H]3[C@@H](CCC4=CC(=O)CC[C@@]43C)[C@@H]1CC[C@@H]2O [testosterone] | 0 |
| C/C=C1\C[C@@H](C)[C@](O)(CO)C(=O)OCC2=CCN3CC[C@@H](OC1=O)[C@@H]23 [Retrorsine] | 0 |
| CC[C@H]1CN2CC[C@H]1C[C@@H]2[C@@H](O)c1ccnc2ccc(OC)cc12 [Hydroquinidine HCl] | 1 |
| C[C@@H](CO)NC(=O)[C@@H]1C=C2c3cccc4[nH]cc(c34)C[C@H]2N(C)C1 [Ergobasine] | 1 |
| COc1cc2c(c(OC)c1OC)-c1ccc(OC)c(=O)cc1[C@@H](NC(C)=O)CC2 [colchicine] | 1 |
| CNC(=O)Oc1ccc2c(c1)[C@]1(C)CCN(C)[C@@H]1N2C [Eserine sulfate, physostigmine sulfate] | 0 |
| N#CC(O[C@@H]1O[C@H](CO[C@@H]2O[C@H](CO)[C@@H](O)[C@H](O)[C@H]2O)[C@@H](O)[C@H](O)[C@H]1O)c1ccccc1 (stereo not given in full) [Amygdalin] | 0 |
| CCN1C[C@]2(COC)CC[C@H](O)[C@@]34[C@@H]5C[C@H]6[C@H](OC(C)=O)[C@@H]5[C@](O)(C[C@@H]6OC)[C@H](C[C@H]23)[C@H]14 [Condelphine] | 0 |

Indicate its recorded phenotypically active; the molecule in question is C/C=C1\CN2CC[C@]34c5cc(OC)ccc5N5C(=O)C(O)OC[C@@H]([C@H]53)[C@H]1C[C@H]24 (stereo not given in full) [10-Methoxy-o-demethyltsilanine]
0

Give a short answer stating reported phenotypically active for NC(=O)CS(=O)C(c1ccccc1)c1ccccc1 (stereo not given) [modafinil] .
0

Recall and state the measured phenotypically active for CC(C)C[C@H](CN)CC(=O)O [pregabalin] .
0

Please report phenotypically active for the following molecule: C=C1[C@@H](O)C2C=CC[C@H](C)C(=O)[C@](C)(O)C=C[C@@H](OC(C)=O)[C@]23C(=O)N[C@H](Cc2ccccc2)[C@@H]3[C@@H]1C (stereo not given in full) [Cytochalasin D]
1

Indicate its recorded phenotypically active; the molecule in question is C[C@@]1(CO)[C@H](O)CC[C@@]2(C)[C@H]1CC[C@H]1C[C@@H]3C[C@@]12CC[C@]3(O)CO [Aphidicolin]
1

Find the measured phenotypically active of CC[C@@H](CO)NC(=O)[C@@H]1C=C2c3cccc4c3c(cn4C)C[C@H]2N(C)C1 [methysergide] and report it.
0

Return phenotypically active for the following molecule: C[C@H]1CCCC=C[C@@H]2C[C@H](O)C[C@H]2[C@H](O)C=CC(=O)O1 [brefeldin-a]
1
